Reference for the values: patent US9266857B2

biological target: human muscarinic M1 receptor (Homo sapiens); construct: expressed in transfected cells; test: Alphascreen Surefire phospho-ERK1/2 functional assay, M1; assay type: cell-based; conditions: CHO, read-out: % Emax cf. ACh, M1, CHO cells stably expressing human M1; relative to ACh
Sequence (P11229 whole entry): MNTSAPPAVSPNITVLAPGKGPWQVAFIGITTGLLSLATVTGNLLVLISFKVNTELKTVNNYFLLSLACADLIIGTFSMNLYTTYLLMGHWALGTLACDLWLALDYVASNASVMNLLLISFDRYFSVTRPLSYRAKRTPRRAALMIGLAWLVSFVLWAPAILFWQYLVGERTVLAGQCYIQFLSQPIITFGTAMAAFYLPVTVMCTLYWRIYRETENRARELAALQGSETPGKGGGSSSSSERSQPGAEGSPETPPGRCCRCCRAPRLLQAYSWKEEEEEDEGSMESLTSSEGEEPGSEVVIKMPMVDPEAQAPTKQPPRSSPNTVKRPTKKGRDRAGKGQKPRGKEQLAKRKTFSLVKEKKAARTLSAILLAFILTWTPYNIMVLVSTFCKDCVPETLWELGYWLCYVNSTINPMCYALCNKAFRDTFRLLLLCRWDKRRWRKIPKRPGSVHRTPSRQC
Kindly state Emax for each of the entries shown.
One number for each entry, in %.

Some compounds with known Emax results, for comparison:
# compound, targetOrTestSystem, reportedValue
records = [
    ("CCOC(=O)N1C2CCC1CC(N1CCC(F)(C(=O)NC3(C)CCC3)CC1)C2 (single isomer, unassigned) [Example 4 - Isomer 2]", "human muscarinic M1 receptor (Homo sapiens)", 111),
    ("C#CCOC(=O)N1C2CCC1CC(N1CCC(C(=O)NC3(C)CCC3)CC1)C2 (single isomer, unassigned) [Example 2 - Isomer 1]", "human muscarinic M1 receptor (Homo sapiens)", 94),
    ("CC#CCOC(=O)N1C2CCC1CC(N1CCC(C(=O)NC3(C)CCC3)CC1)C2 (single isomer, unassigned) [Example 3 - Isomer 2]", "human muscarinic M1 receptor (Homo sapiens)", 109),
    ("CCOC(=O)N1CCC2(CC(N3CCC(C(=O)NC4(C)CCC4)CC3)C2)C1 (single isomer, unassigned) [Example 9 - Isomer 2]", "human muscarinic M1 receptor (Homo sapiens)", 100),
    ("CCOC(=O)N1[C@@H]2CCC[C@H]1CC(N1CCC(C(=O)NC3(C)CCC3)CC1)C2 (mixture of isomers) [Example 6 - mixture of diastereomers]", "human muscarinic M1 receptor (Homo sapiens)", 151),
]

Request: Find the recorded Emax belonging to CCOC(=O)N1C2CCC1CC(N1CCC(C(=O)NC3(C)CCC3)CC1)C2 (single isomer, unassigned) [Example 1 - Isomer 1] and report it.
Result: 99

* * *

biological target: human muscarinic M1 receptor (Homo sapiens); construct: expressed in transfected cells; assay: Alphascreen Surefire phospho-ERK1/2 functional assay, M1; format: cell-based; settings: CHO cells stably expressing human M1; phospho-ERK1/2; read-out: pEC50 M1 (converted)
Field 'label' (enum: Met / Not met). Set to Met when EC50 is strictly under 300 nM; else Not met.

Before answering, review these 3 worked examples.
# compound, targetOrTestSystem, class
data = [
    ("[2H]C([2H])([2H])C1(NC(=O)C2CCN(C3CC4(CCN(C(=O)OCC)C4)C3)CC2)CCC1 (single isomer, unassigned) [Example 21 - Isomer 2]", "human muscarinic M1 receptor (Homo sapiens)", "Met"),
    ("CCOC(=O)N1CCC2(CC(N3CCC(F)(C(=O)NC4(C)CCC4)CC3)C2)C1 (mixture of isomers) [Example 11 - mixture of diastereomers]", "human muscarinic M1 receptor (Homo sapiens)", "Met"),
    ("CCOC(=O)N1C2CCC1CC(N1CCC(F)(C(=O)NC3(C)CCC3)CC1)C2 (single isomer, unassigned) [Example 4 - Isomer 2]", "human muscarinic M1 receptor (Homo sapiens)", "Met"),
]

Request: Is the reported EC50 for C#CCOC(=O)N1C2CCC1CC(N1CCC(C(=O)NC3(C)CCC3)CC1)C2 (single isomer, unassigned) [Example 2 - Isomer 1] strictly below 300 nM?
Result: Not met

Request: Is the reported EC50 for [2H]C([2H])([2H])COC(=O)N1CCC2(CC(N3CCC(C(=O)NC4(CF)CCC4)CC3)C2)C1 (single isomer, unassigned) [Example 28 - Isomer 2] strictly below 300 nM?
Result: Not met

Request: Is the reported EC50 for [2H]C([2H])([2H])COC(=O)N1CCC2(CC(N3CCC(C(=O)NC4(C([2H])([2H])[2H])CCC4)CC3)C2)C1 (single isomer, unassigned) [Example 26 - Isomer 2] strictly below 300 nM?
Result: Met

* * *

Kindly state EC50 for each of the entries shown.
Molecular target: human muscarinic M4 receptor (Homo sapiens, UniProt P08173)
Construct: expressed in transfected cells
Sequence (P08173 1-479): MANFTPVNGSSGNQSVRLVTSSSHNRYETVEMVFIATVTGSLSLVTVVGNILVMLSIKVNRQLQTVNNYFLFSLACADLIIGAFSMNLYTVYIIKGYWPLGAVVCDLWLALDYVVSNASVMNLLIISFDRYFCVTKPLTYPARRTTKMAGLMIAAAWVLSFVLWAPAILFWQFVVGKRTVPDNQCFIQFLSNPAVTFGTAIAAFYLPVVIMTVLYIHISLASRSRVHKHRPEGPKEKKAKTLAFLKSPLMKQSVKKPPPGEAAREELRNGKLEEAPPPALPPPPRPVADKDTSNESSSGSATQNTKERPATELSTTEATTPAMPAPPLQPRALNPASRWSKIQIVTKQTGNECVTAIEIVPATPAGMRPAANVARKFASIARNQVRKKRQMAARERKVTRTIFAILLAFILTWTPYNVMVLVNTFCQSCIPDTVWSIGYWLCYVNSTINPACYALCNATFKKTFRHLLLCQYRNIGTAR
Assay: Alphascreen Surefire phospho-ERK1/2 functional assay, M4
Type: cell-based
Conditions: CHO cells stably expressing human M4; phospho-ERK1/2; read-out: pEC50 M4 (converted)
Numbers only, in µM.

Some compounds with known EC50 results, for comparison:
# compound, reportedValue
records = [
    ("CCOC(=O)N1CC2CC(N3CCC(C(=O)NC4(C)CCC4)CC3)CC1C2 (mixture of isomers) [Example 7 - mixture of diastereomers]", 0.447),
    ("[2H]C([2H])([2H])C([2H])([2H])OC(=O)N1CCC2(CC(N3CCC(C(=O)NC4(C([2H])([2H])[2H])C([2H])([2H])C([2H])([2H])C4([2H])[2H])CC3)C2)C1 (mixture of isomers) [Example 31 - mixture of diastereomers]", 0.646),
]

Request: Find the recorded EC50 belonging to CCOC(=O)N1CC2CC(N3CCC(C(=O)NC4(C)CCC4)CC3)CC2C1 (mixture of isomers) [Example 8 - mixture of diastereomers] and report it.
Result: 1.7

* * *

target: human muscarinic M1 receptor (Homo sapiens); construct: expressed in transfected cells; assay: Alphascreen Surefire phospho-ERK1/2 functional assay, M1; type: cell-based; conditions: CHO, read-out: % Emax cf. ACh, M1
readoutKind: Emax (%)
Answers are plain numbers, in %.

Please state, for each entry, its recorded Emax.
1. CCOC(=O)N1CCC2(CC(N3CCC(C(=O)NC(C)(C)CC)CC3)C2)C1 (mixture of isomers) [Example 16 - mixture of diastereomers]
2. CC#CCOC(=O)N1CCC2(CC(N3CCC(C(=O)NC4(C)CCC4)CC3)C2)C1 (mixture of isomers) [Example 10 - mixture of diastereomers]
3. CCOC(=O)N1CCC2(CC(N3CCC(C(=O)NC4(C)CCC4)CC3)C2)C1 (single isomer, unassigned) [Example 9 - Isomer 1]
4. CCOC(=O)N1CCC2(CC(N3CCC(C(=O)NC4(C)CCC4)CC3)C2)C1 (mixture of isomers) [Example 9 - mixture of diastereomers]
5. CCOC(=O)N1CC2CC(N3CCC(C(=O)NC4(C)CCC4)CC3)CC2C1 (mixture of isomers) [Example 8 - mixture of diastereomers]
6. CCOC(=O)N1CC2(CCC(N3CCC(C(=O)NC4(C)CCC4)CC3)C2)C1 (racemic) [Example 12 - racemic]
7. CCOC(=O)N1CCC2(CC(N3CCC(C(=O)NC4(CF)CCC4)CC3)C2)C1 (single isomer, unassigned) [Example 23 - Isomer 2]

Result:
113
93
102
142
118
141
90

Please state, for each entry, its recorded Emax.
1. [2H]C([2H])([2H])COC(=O)N1CCC2(CC(N3CCC(C(=O)NC4(CF)CCC4)CC3)C2)C1 (single isomer, unassigned) [Example 28 - Isomer 2]
2. [2H]C([2H])([2H])C1(NC(=O)C2CCN(C3CC4(CCN(C(=O)OCC)C4)C3)CC2)C([2H])([2H])C([2H])([2H])C1([2H])[2H] (single isomer, unassigned) [Example 22 - Isomer 2]
3. [2H]C([2H])([2H])COC(=O)N1CCC2(CC(N3CCC(C(=O)NC4(C)CCC4)CC3)C2)C1 (single isomer, unassigned) [Example 25 - Isomer 2]

Result:
1: 120; 2: 103; 3: 108

Please state, for each entry, its recorded Emax.
1. [2H]C([2H])([2H])COC(=O)N1CCC2(CC(N3CCC(C(=O)NC4(C([2H])([2H])[2H])CCC4)CC3)C2)C1 (single isomer, unassigned) [Example 26 - Isomer 2]
2. CCOC(=O)N1CC2CC(N3CCC(C(=O)NC4(C)CCC4)CC3)CC1C2 (mixture of isomers) [Example 7 - mixture of diastereomers]
3. [2H]C([2H])([2H])C1(NC(=O)C2CCN(C3CC4(CCN(C(=O)OCC)C4)C3)CC2)CCC1 (single isomer, unassigned) [Example 21 - Isomer 2]
4. CCOC(=O)N1CCC2(CC(N3CCC(F)(C(=O)NC4(C)CCC4)CC3)C2)C1 (mixture of isomers) [Example 11 - mixture of diastereomers]

Result:
1: 108; 2: 127; 3: 107; 4: 112
